- TEST_SYSTEM: D(2) dopamine receptor (Homo sapiens) (UniProt P14416)
- Sequence (P14416 whole entry, looked up): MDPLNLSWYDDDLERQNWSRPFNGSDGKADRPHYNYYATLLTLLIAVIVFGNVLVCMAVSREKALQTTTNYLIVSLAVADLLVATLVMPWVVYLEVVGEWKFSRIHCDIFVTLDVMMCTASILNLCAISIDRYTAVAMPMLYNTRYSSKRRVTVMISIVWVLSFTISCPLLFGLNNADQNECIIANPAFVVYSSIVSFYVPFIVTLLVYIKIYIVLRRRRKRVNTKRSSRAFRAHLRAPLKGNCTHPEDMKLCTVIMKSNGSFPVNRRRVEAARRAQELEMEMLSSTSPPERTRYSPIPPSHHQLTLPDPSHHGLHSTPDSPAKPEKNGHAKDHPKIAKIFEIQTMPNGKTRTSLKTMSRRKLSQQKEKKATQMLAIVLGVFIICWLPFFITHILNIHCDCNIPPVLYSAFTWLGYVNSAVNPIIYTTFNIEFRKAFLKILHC
- EXPERIMENT_DESCRIPTION: Beta-Arrestin HTS for Positive Allosteric Modulators of the Human D2 Dopamine Receptor: Potentiators
- REPORTED_CONDITIONS: DiscoveRx D2 beta-arrestin cells, luminescence, 90 min; 100% = 57 uM dopamine signal
Out of some 360,000 compounds screened, about 810 (0.23%) were called active. Rule as the data show it: active = potentiation above about 50%; inconclusive = mostly about 30% to 49%; inactive = weaker than that. This excerpt belongs to a sample that is enriched for actives.
Your response should consist of one outcome taken from T for active, F for inactive

See these solved cases before continuing.
CCN(c1cccc(C)c1)S(=O)(=O)c1ccc(-c2coc(C)n2)cc1 :: F
C=C(C)CSc1nc(N)c2c3c(sc2n1)CCC3 :: F
CC(C)(C)C1CCc2c(sc3nc(SCC(N)=O)nc(N)c23)C1 (stereo unspecified) :: T
O=C(NCCc1nnc2ccc(SCC(=O)N3CCOCC3)nn12)c1ccccc1 :: F

Recorded call for COc1cc(C(=O)N2CCN(S(=O)(=O)c3ccc(C(C)C)cc3)CC2)ccc1OCC(=O)N1CCOCC1 ?
F

Tell me the recorded outcome of this test for Nc1nc(SCC(=O)NCCN2CCOCC2)nc2sc3c(c12)CCC3 .
F

Could you kindly confirm the outcome this assay logged for NC(=O)c1cc(S(=O)(=O)N2CCCC2)ccc1OCc1ccc(F)cc1 ?
F

Hi, sorry to bother you, what did the test record for COc1ccccc1Cc1c(-c2ccc(Cl)cc2)nc2ccc(Cl)cn12 ?
F

Recorded call for Cc1ccc2c(c1)C(O)(CC(=O)c1cccnc1)C(=O)N2 (stereo unspecified) ?
F

Please share the test call associated with CCOc1ccc(N2C(=O)CC(N(O)c3ccccc3)C2=O)cc1 (stereo unspecified) .
T

Would you mind telling me which call this test gave Cc1ccc(S(=O)(=O)n2cccc2CO)cc1 ?
F

----------
- TEST_SYSTEM: D(2) dopamine receptor (Homo sapiens)
- EXPERIMENT_DESCRIPTION: Beta-Arrestin HTS for Positive Allosteric Modulators of the Human D2 Dopamine Receptor: Potentiators
- REPORTED_CONDITIONS: DiscoveRx D2 beta-arrestin cells, luminescence, 90 min; active compounds read high; 100% = 57 uM dopamine signal
The campaign covered roughly 360,000 compounds. About 810 (0.23%) were called active. The list comes from a sample in which actives are over-represented; it also holds close analogues and randomly drawn compounds.
Listing: potentiation of selected compounds
The reply should contain only the number, in %.

O=C(Nc1ccccc1F)c1ccc(Cn2cc(Br)cn2)cc1 :: -6.63
N#Cc1ccc(COC(=O)Cn2nnc(-c3ccccc3)n2)cc1 :: -0.341
CCc1ccnc(NC(=O)Nc2ccc(OCc3ccccc3)cc2)c1 :: -1.75
CNC(=O)/C(C#N)=C/c1c(F)cccc1Cl :: 21.1
O=C(Nc1ccccc1F)c1ccccc1-c1ccc(C(F)(F)F)cc1 :: -15.1
Cc1nn(C)c(C)c1S(=O)(=O)N1CCc2ccccc21 :: 3.69
CN(Cc1ccccc1)C(=O)COC(=O)/C=C/c1ccc2c(c1)OCO2 :: -10.6
Cc1c(C=O)c2ccccn2c1C(=O)c1ccncc1 :: 13.6
CCC(C)NC(=O)C1CCCN(C(=O)NC2CCCCC2)C1 (stereo not drawn) :: 2.71
CSc1ncnc2c1ncn2CCCNCc1cccs1 :: 0.128

Give potentiation for the following compound: CCC(C)CCN1CCN=C1N(C)C (stereo not drawn)
-8.79

Supply measured potentiation of Cc1ccccc1NC(=O)c1nn(-c2ccc(F)c(F)c2)ccc1=O in your reply.
-20.8

Entry CC(C)c1ccc(NC(=O)COC(=O)c2ccc(CN3CCCC3=O)cc2)cc1 needs its potentiation filled in; supply it.
0.762

Taken from PubChem BioAssay AID624464.
